Kindly state IC50 at 30 min for each of the entries shown.
- Tested on: UGT (furosemide glucuronidation)
- PROCEDURE_TEXT: Inhibition of furosemide glucuronidation in regular mouse liver microsomes
- Type: in vitro ADME
- CONDITIONS: CD-1, mouse, pH 7.4, probe furosemide; regular mice liver microsomes
// note: answer is a bare numeric in µM

query: Identify IC50 at 30 min associated with the compound NCCc1c[nH]c2ccc(O)cc12 [serotonin]
result: 450

query: Identify IC50 at 30 min associated with the compound C[C@]12CC[C@@H]3c4ccc(O)cc4CC[C@H]3[C@@H]1CC[C@@H]2O [estradiol]
result: 111

----------
- Test system: UGT (furosemide glucuronidation)
- PROCEDURE_TEXT: Inhibition of furosemide glucuronidation in human liver microsomes
- Assay type: in vitro ADME
- CONDITIONS: pH 7.4, probe furosemide
MEASURE_NAME: IC50 at 30 min

query: Identify IC50 at 30 min associated with the compound C[C@]12CC[C@@H]3c4ccc(O)cc4CC[C@H]3[C@@H]1CC[C@@H]2O [estradiol]
result: 31.7 µM

query: Identify IC50 at 30 min associated with the compound Cc1cn([C@H]2C[C@H](N=[N+]=[N-])[C@@H](CO)O2)c(=O)[nH]c1=O [AZT, 3′-azido-3′-deoxythymidine]
result: > 500 µM

query: Identify IC50 at 30 min associated with the compound NCCc1c[nH]c2ccc(O)cc12 [serotonin]
result: > 5000 µM
